These measurements were taken from the supplement of paper PMC3334620.

Answer each item with its documented PBM E-score.
Target: Abf1 (UniProt P14164)
Sequence: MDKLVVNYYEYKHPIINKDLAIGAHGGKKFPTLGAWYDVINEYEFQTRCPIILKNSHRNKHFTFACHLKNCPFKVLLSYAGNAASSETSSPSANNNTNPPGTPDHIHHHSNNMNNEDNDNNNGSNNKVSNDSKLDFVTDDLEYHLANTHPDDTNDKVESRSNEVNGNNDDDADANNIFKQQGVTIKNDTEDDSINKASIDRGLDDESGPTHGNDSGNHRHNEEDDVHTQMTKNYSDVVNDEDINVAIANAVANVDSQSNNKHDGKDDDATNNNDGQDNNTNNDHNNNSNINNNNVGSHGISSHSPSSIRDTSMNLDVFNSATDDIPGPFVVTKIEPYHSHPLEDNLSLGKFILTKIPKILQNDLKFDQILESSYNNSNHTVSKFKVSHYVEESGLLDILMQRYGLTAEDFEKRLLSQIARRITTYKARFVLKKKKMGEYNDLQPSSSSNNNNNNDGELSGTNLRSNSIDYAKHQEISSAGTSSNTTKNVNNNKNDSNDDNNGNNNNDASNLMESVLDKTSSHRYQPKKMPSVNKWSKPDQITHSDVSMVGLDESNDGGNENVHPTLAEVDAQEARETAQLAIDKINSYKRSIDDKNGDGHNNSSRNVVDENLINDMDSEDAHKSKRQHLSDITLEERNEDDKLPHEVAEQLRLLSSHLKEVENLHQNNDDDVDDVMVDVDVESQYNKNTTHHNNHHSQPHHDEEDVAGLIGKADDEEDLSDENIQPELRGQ
Experiment: PBM E-score (8-mer binding enrichment) (E-score (-0.5 to 0.5)); higher = stronger / more preferred TF binding
Details: protein concentration: 200 nM; construct: GST-full length
Whole data set: some 33,000 sequences, median “E-score (-0.5 to 0.5)” near -0.015, cut for the highest 2% near 0.3. For the sample, the highest values were picked, then their nearest neighbours and some sequences at random.
Could you respond with only the numeric value?

### Prompt Value lookup for PBM E-score; key = CATCGCGA
### Response 0.2

### Prompt Give its PBM E-score value. Item: AATACGGG
### Response 0.202

### Prompt PBM E-score for GATACGGC ?
### Response 0.199

### Prompt So what does the record say about PBM E-score for CGTATACG ?
### Response 0.195
